tested on: SF-268 CNS; assay: NCI-60 one-dose screen, 48 h (100 = growth as untreated, 0 = no growth, -100 = all killed); settings: 10 µM unless noted
Compounds without any hit were thinned out: in the full panel of roughly 83,000, 20% have a hit. Activity calls are given as the source filed them. Rule for the calls: active = growth percent below 10; inactive = the rest.
Below, each entry is listed with its recorded growth.

COc1ccc2[nH]c(O)c(N=Nc3nc(-c4ccccc4)cs3)c2c1 = 17.1% (inactive)
Cn1cc(-c2cc(N)n3nc(-c4c[nH]c5ccc(F)cc45)cc3n2)c2cccnc21 = -27% (active)
CN1CCc2c(sc3ncnc(N/N=C/c4cccc(Cl)c4Cl)c23)C1 = 43.1% (inactive)

SF-268 CNS data for "O=C(CSc1nc2sc3c(c2c(=O)n1-c1ccc(Cl)cc1)CCCC3)N/N=C/C=C/c1ccccc1" ; its growth: 55.1% (inactive)

SF-268 CNS data for "COc1cc(CNC(=O)C[C@H](C)CCC=C(C)C)ccc1OCc1cn(-c2ccccc2F)nn1" ; its growth: 58.9% (inactive)

SF-268 CNS data for "CCC(=O)c1c2c(c3ccc4c5ccccc5ccc4n13)C(=O)c1ccccc1C2=O" ; its growth: 95.4% (inactive)

====

system: HCC-2998 colon; assay: NCI-60 one-dose screen, 48 h (100 = growth as untreated, 0 = no growth, -100 = all killed); conditions: 10 µM unless noted
This is part of a sample that, as a whole, favours compounds with a hit. Of some 83,000 tested, about 20% had one in any assay.
Below, each entry is listed with its recorded growth.
Supply the numeric figure in %, leaving out any unit text.

Completed entries (count: 3):
Cc1ccc(Cl)cc1NC(=O)N/C(N)=N/c1nc2ccccc2s1 = -14.8
COc1ccc2ccccc2c1/C=C1\SC(=Nc2ccc(O)cc2)NC1=O = -0.301
O=C(c1cc2cc(OCCCN3CCC3)ccc2[nH]1)N1C[C@@H](CCl)c2c1cc(OCc1ccccc1)c1ccccc21 = -77.1

Record "N/C(=N\c1nc2ccccc2s1)NC(=O)Nc1ccccc1[N+](=O)[O-]" . Reported growth: 8.25

Record "COc1ccccc1Nc1nnc(-c2c[nH]c3ccccc23)o1" . Reported growth: 7.55

Record "CN(C)c1nc(NCCNS(=O)(=O)c2ccc(C(=O)/C=C/c3ccc(Cl)cc3)cc2)nc(N2CCOCC2)n1" . Reported growth: -94.4

Record "Nc1ccc(-c2ccc3ncnc(N4CCc5cc(F)c(Cl)cc54)c3c2)cn1" . Reported growth: 38.2

Record CCOc1ccccc1[C@H]1C(C(=O)c2ccc(Cl)cc2)C2(N[C@@H]1c1ccccc1)C(=O)Nc1ccccc12 (stereo partly specified) . Reported growth: 6.07

Record "Cc1cccc(-c2ccccc2Oc2ccc3nnc(Cl)n3n2)c1" . Reported growth: 105

Record "COc1ccc2c(c1)c(-c1cc(N)n3nc(-c4c[nH]c5ccccc45)cc3n1)cn2C" . Reported growth: -80.6

Record "CCOC(=O)c1ccc(NC(=S)NC(=O)c2cccc(NC(=O)c3ccc(C)cc3)c2)cc1" . Reported growth: 98.4

====

system: TK-10 renal; test: NCI-60 one-dose screen, 48 h (100 = growth as untreated, 0 = no growth, -100 = all killed); conditions: 10 µM unless noted
Compounds without any hit were thinned out: in the full panel of roughly 83,000, 20% have a hit.
recorded.endpoint: growth (%)
Supply the numeric figure in %, leaving out any unit text.

Completed entries (count: 10):
O=C(N/N=C/c1ccc(Cl)cc1)c1ccc(OCc2nc3ccc(Cl)cc3[nH]2)cc1 = 12.4
Cc1ccc(C(C(=O)NC2CCCCC2)N(Cc2ccccc2Cl)C(=O)c2ccc(CN3CCOCC3)o2)o1 (centres undefined) = 101
Cc1cc(C(NC(=O)CCCCCNc2cccc3c2C(=O)N(C2CCC(=O)CC2=O)C3=O)c2cccc(N(C)C)c2)c(O)c2ncccc12 (centres undefined) = 42.4
S=C(Nc1ccc(OCc2nc3ccc(Cl)cc3[nH]2)cc1)NC1CCCCC1 = -10.8
CCCCNC(=S)Nc1ccc(OCc2nc3ccc(Cl)cc3[nH]2)cc1 = 36.6
Nc1nn2c(-c3cc4cc(Br)ccc4oc3=O)ccnc2c1N=Nc1ccccc1 = 39.9
COc1cc(/C=C/C(=O)c2cnn(-c3cc(=O)[nH]c4ccc(Br)cc34)c2C)cc(OC)c1OC = 1.77
CCCn1c(NC(=O)c2cccc(C(N)=O)c2)nc2ccc(CN3CCCCC3)cc21 = 99.3
COc1cc2cc(C(=O)N3C[C@@H](CCl)c4c3cc(OC(=O)N(CCC(=O)N3CCN(C)CC3)[C@H]3CCSSC3)c3ccccc43)[nH]c2c(OC)c1OC = 8.66
CCc1ccccc1NC(=O)N/C(N)=N/c1nc2ccccc2s1 = 19.8

Record "Cc1ccc2c(c1)nc(-c1ccccc1)n2CC(=O)N=Nc1c(O)[nH]c2ccc(Cl)cc12" . Reported growth: -15.1

Record "Cc1cc(N=C(N)c2ccccc2)ccc1OCCCCCCCCn1ccnc1" . Reported growth: 32.9

Record "Cc1nn(-c2ccccc2)c2ncn(CC(=O)N/N=C/c3ccccc3O)c(=O)c12" . Reported growth: 63.4

Record "O=Cc1cncc(-c2ccc3ncnc(N4CCc5cc(F)c(Cl)cc54)c3c2)c1" . Reported growth: 4.74

Record COC(=O)c1c(C(=O)OC)c2ccc3c4ccccc4ccc3n2c1C(=O)C(C)Br (centres undefined) . Reported growth: 58.1

Record "COc1ccc2[nH]c(O)c(N=Nc3nc(-c4ccc(Cl)cc4)cs3)c2c1" . Reported growth: 7.57

Record "CN1CCN(c2ccc3c4c(cccc24)C(=O)N(c2cccc(-c4nn(-c5ccccc5)cc4-c4nc5ccccc5s4)c2)C3=O)CC1" . Reported growth: 119

Record CCC1(OC(=O)c2ccccc2SSCCOC(=O)CCCCC2SCC3NC(=O)NC32)C(=O)OCc2c1cc1n(c2=O)Cc2cc3ccccc3nc2-1 (centres undefined) . Reported growth: 94.8

Record COc1ccc2c(c1)C(Sc1ccc(F)cc1)c1c(nc(N)c(C#N)c1N)O2 (centres undefined) . Reported growth: 103

Record CC1=C(C(=O)Nc2ccccc2)C(c2cccc3ccccc23)n2c(nc3ccccc32)N1 (centres undefined) . Reported growth: 81

Record "O=C(N/N=C/c1ccc(-c2cccc([N+](=O)[O-])c2)s1)c1[nH]c2ccc(Br)cc2c1-c1ccccc1" . Reported growth: 101

Record COc1ccc2c(c1)C(Sc1ccc(Cl)cc1)c1c(nc(N)c(C#N)c1N)O2 (centres undefined) . Reported growth: 99.1

Record "O=C(CSc1nnc(-c2ccc(-c3nc4ccccc4[nH]3)cc2)o1)Nc1ccc(Br)cc1" . Reported growth: 56.7

Record "CCCCCCCCc1ccc(C(=O)Nc2ccc(C)c(OP(=O)(O)O)c2)cc1" . Reported growth: 107

Record "COc1cccc(-c2ccc(/C=N/NC(=O)c3[nH]c4ccc(Br)cc4c3-c3ccccc3)s2)c1" . Reported growth: 8.47

Record "Cc1oc(-c2ccccc2)nc1CN[C@@H]1C[C@@H]2C[C@H]([C@H]1C)C2(C)C" . Reported growth: 80.8

Record "Cc1ccc(C(=O)Nc2cc(-c3ccccc3)cc(C(F)(F)F)c2)cc1C#Cc1cnc2cccnn12" . Reported growth: 79.3

Record "COc1ccc(S(=O)(=O)Nc2ccc(-c3ccc4c(c3)NC(=O)/C4=C\c3ccc[nH]3)cc2)cc1OC" . Reported growth: 11.7

Record "COc1cc(/C=C/C(=O)c2cnn(-c3cc(=O)[nH]c4ccc(Cl)cc34)c2C)cc(OC)c1OC" . Reported growth: 0.154

====

Below, each entry is listed with its recorded growth.
Test system: SK-MEL-28 melanoma
Assay: NCI-60 one-dose screen, 48 h (100 = growth as untreated, 0 = no growth, -100 = all killed)
Details: 10 µM unless noted
Method: Growth inhibition of the SK-MEL-28 human tumor cell line is measured as a screen for anti-cancer activity. Cells are grown in 96 well plates and exposed to the test compound for 48 hours. Compounds are tested at a single concentration, which is 10^-5 M for most compounds. The reported endpoint is percent growth (GI% or GIPRCNT), where numbers from 0 - 100% represent growth inhibition, and numbers from -100% - 0 represent cell death. For example, a value of 40 represents 60% growth inhibition. […]
Compounds without any hit were thinned out: in the full panel of roughly 83,000, 20% have a hit.
Supply the numeric figure in %, leaving out any unit text.

O=[N+]([O-])c1cccc(-c2nnc3c(/C=C/c4ccc(F)cc4)nc4ccccc4n23)c1 = 107
Nc1nnc(CS(=O)(=O)c2ccccc2)s1 = 112
Cn1cc(-c2cc(N)n3nc(-c4c[nH]c5ccccc45)cc3n2)c2cc(Br)ccc21 = -59.1

Record "O=C(N/N=C/c1c[nH]c2ccccc12)Nc1ccccc1Cl" . Reported growth: 39.7

====

Test system: SK-MEL-5 melanoma
Experiment: NCI-60 one-dose screen, 48 h
Details: 10 µM unless noted
Method: Growth inhibition of the SK-MEL-5 human tumor cell line is measured as a screen for anti-cancer activity. Cells are grown in 96 well plates and exposed to the test compound for 48 hours. Compounds are tested at a single concentration, which is 10^-5 M for most compounds. The reported endpoint is percent growth (GI% or GIPRCNT), where numbers from 0 - 100% represent growth inhibition, and numbers from -100% - 0 represent cell death. For example, a value of 40 represents 60% growth inhibition. […]
Compounds without any hit were thinned out: in the full panel of roughly 83,000, 20% have a hit. Calls of active or inactive are those of the source. The calls were made as follows: active = growth percent below 10; inactive = the rest.
Field 'call' accepts YES = active, NO = inactive

Worked set:
Cc1[nH]nc2ccc3nc(-c4cnn(CCO)c4)c4c(c3c12)CCCC4 = NO
Cn1cc(-c2cc(N)n3nc(-c4c[nH]c5ccccc45)cc3n2)c2cc(Cl)ccc21 = YES
CC(C)(C)C(=O)c1c2c(c3ccc4c5ccccc5ccc4n13)C(=O)c1ccccc1C2=O = NO
COC(=O)c1cc(C(=O)C(Br)Br)n2c1ccc1c3ccccc3ccc12 = NO
COc1ccccc1/C=C/c1cccc(NC(=S)NCCCCN(C)C)c1 = YES
O=C(Nc1ccc(-c2ccc3c(c2)NC(=O)/C3=C\c2ccc[nH]2)cc1)Nc1ccc(Cl)c(C(F)(F)F)c1 = NO
O=C(N=Nc1c(O)[nH]c2ccc(Br)cc12)c1ccc2nc(-c3ccc(Cl)cc3)[nH]c2c1 = NO

Record lookup: outcome of this test for "O=C(Cc1c(-c2ccccc2[N+](=O)[O-])n(-c2ncnc3c2c(-c2ccccc2)c(-c2ccccc2)n3Cc2ccccc2)[nH]c1=O)c1ccc(Cl)c(Cl)c1" ?
YES

Measured values drawn from PubChem BioAssay (NCI) for this set.
